# Experiment: Unbound clearance in rat at 0.05 mg/kg, iv administered as cassette dose
# Assay type: ADME, organism-based
# Particulars: in vivo
Threshold rule: CL free greater than or equal to 2000 mL/min/kg is met; below that, not met.

- NS(=O)(=O)c1cccc(NC(=O)c2cc(C(F)(F)F)cnc2N2CCCCCC2)c1: not met
- Cc1cc(C(=O)Nc2cccc(S(N)(=O)=O)c2)c(N2CCCCC2)nc1C: met
- NS(=O)(=O)c1cccc(NC(=O)c2cc(C(F)(F)F)cnc2N2CCCC(F)(F)CC2)c1: not met
- NS(=O)(=O)c1cccc(NC(=O)c2ccc(C(F)(F)F)nc2N2CCCCC2)c1: not met
- NS(=O)(=O)c1cccc(NC(=O)c2cc(C(F)(F)F)cnc2N2CCC(F)(F)CC2)c1: not met

Taken from ChEMBL document CHEMBL5532744.
